system: ducksalad (Heteranthera limosa); test: Test C flooded paddy test: ducksalad; format: in vivo; conditions: Flood (flooded paddy test), 250 g ai/ha; visual rating after 13 to 15 days, scale 0 to 100 (0 no effect, 100 complete control)
Plant response rating, Ducksalad values for the compounds below.

# example entries with known answers
Cc1nn(-c2cnc(Cl)cn2)nc1C(=O)c1cccc(C(F)(F)F)c1: 0
Cc1nn(-c2cccc(C(F)(F)F)c2)nc1Oc1ccnc(C(F)(F)F)c1: 70
Cc1nn(-c2ccc(C(F)(F)F)cn2)nc1Cn1nc(C(F)(F)F)cc1C: 0

Query: # lookup: Plant response rating, Ducksalad of `Cc1nn(-c2ccccc2[N+](=O)[O-])nc1C(=O)c1cccc(C(F)(F)F)c1`
Reply: 0
